target: human TRPM8 (Homo sapiens (Human)); assay: TRPM8 inhibition assay (menthol-induced calcium influx, FDSS); conditions: HEK293 cells stably expressing human TRPM8; 100 μM menthol; Fura-2AM Ca2+ signal; read-out: TRPM8 Blocking Test (IC50)
Sequence (Q7Z2W7 whole entry): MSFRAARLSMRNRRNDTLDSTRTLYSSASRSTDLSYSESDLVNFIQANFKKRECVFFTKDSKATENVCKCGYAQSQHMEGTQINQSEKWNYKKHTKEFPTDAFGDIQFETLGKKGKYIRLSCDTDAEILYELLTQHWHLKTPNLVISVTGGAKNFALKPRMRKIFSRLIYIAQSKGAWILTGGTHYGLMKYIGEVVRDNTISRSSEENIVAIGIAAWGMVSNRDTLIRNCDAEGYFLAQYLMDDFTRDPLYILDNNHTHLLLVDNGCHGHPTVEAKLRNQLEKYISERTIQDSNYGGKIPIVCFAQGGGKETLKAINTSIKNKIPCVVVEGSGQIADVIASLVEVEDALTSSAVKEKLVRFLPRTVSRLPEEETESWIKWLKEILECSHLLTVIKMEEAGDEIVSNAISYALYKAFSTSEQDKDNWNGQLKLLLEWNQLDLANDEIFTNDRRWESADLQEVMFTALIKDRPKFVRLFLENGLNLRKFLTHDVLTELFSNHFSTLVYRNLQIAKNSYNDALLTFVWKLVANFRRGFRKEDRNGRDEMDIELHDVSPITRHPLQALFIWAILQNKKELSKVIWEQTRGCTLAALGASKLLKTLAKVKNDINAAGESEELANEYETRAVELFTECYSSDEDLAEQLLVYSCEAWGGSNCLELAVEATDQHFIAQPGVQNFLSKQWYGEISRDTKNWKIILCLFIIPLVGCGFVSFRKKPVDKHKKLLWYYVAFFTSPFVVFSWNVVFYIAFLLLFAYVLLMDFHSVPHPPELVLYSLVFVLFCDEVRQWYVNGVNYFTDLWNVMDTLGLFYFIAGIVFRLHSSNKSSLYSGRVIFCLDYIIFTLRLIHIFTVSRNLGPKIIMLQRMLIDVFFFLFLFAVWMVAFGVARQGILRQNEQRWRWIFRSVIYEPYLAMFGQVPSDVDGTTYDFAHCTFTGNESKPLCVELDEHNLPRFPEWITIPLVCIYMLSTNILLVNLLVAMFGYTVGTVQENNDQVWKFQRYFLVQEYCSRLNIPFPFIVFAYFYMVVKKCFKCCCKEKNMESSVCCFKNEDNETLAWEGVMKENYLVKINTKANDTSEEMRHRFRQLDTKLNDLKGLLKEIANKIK
test-readout: IC50 (µM)

Solved entries (count: 2):
>>> df
                                   molecule                      assayed_system  number
0  Cc1c(N(Cc2cc3c(Cl)cccc3s2)S(=O)(=O)c2ccc(C(=O)O)cc2)ncc2ccccc12 [Example 196]  human TRPM8 (Homo sapiens (Human))  0.0022
1  Cc1c(N(Cc2ccc(-c3ccc(F)cc3)cc2)S(=O)(=O)c2ccc(C(=O)O)cc2)ncc2ccccc12 [Example 8]  human TRPM8 (Homo sapiens (Human))   0.026

(A) COc1c(N(Cc2ccc(OC(F)(F)F)cc2)S(=O)(=O)c2ccc(C(=O)O)cc2)ncc2ccccc12 [Example 149]
(B) Cc1c(N(Cc2ccc3c(Cl)n[nH]c3c2)S(=O)(=O)c2ccc(C(=O)O)cc2)ncc2ccccc12 [Example 176]
(C) Cc1c(N(Cc2ccc(C(F)(F)C3CCC3)cc2)S(=O)(=O)c2ccc(C(=O)O)cc2)ncc2ccccc12 [Example 189]
(D) CONC(=O)c1ccc(S(=O)(=O)N(Cc2ccc(OC(F)(F)F)cc2)c2ncc3ccccc3c2C)cc1 [Example 124]
### Prompt Provide the items ranked by increasing IC50. Your answer should be the labels, listed in the requested order.
### Response C, A, D, B
(C: 0.0017 µM, A: 0.0039 µM, D: 0.013 µM, B: 0.021 µM)

(A) Cc1c(N(Cc2ccc(OC(F)(F)F)cc2)S(=O)(=O)c2ccc(C(=O)O)cc2)nc(C(F)(F)F)c2ccccc12 [Example 108]
(B) Cc1c(N(Cc2ccc(C(C)(C)C)cc2)S(=O)(=O)c2ccc(C(=O)O)cc2)ncc2ccccc12 [Example 23]
### Prompt Short answer wanted: higher IC50, A or B ? Could you answer with the label of the item you picked?
### Response A
(A: 0.021 µM, B: 0.0018 µM)

* * *

target: human TRPM8 (Homo sapiens (Human)); assay: TRPM8 inhibition assay (menthol-induced calcium influx, FDSS); details: HEK293 cells stably expressing human TRPM8; 100 μM menthol; Fura-2AM Ca2+ signal; read-out: TRPM8 Blocking Test (IC50)
test-readout: IC50 (nM)

Solved entries (count: 4):
>>> df
                                   compound  number
0  Cc1c(N(Cc2ccc3c(c2)CCC3(C)C)S(=O)(=O)c2ccc(C(=O)O)cc2)ncc2ccccc12     1.3
1  Cc1c(N(Cc2ccc(C(F)(F)C3CC3)c(F)c2)S(=O)(=O)c2ccc(C(=O)O)cc2)ncc2ccccc12     1.5
2  Cc1c(N(Cc2ccc(C(O)(C(F)(F)F)C(F)(F)F)cc2)S(=O)(=O)c2ccc(C(=O)O)cc2)ncc2ccccc12      40
3  Cc1c(N(Cc2ccc(-c3ccccc3)cn2)S(=O)(=O)c2ccc(C(=O)O)cc2)ncc2ccccc12      67

(P) Cc1c(N(CC2CCN(c3ccccc3)CC2)S(=O)(=O)c2ccc(C(=O)O)cc2)ncc2ccccc12
(Q) Cc1c(N(Cc2ccc(C(F)(F)C3CC3)cc2)S(=O)(=O)c2ccc(C(=O)O)cc2)ncc2ccccc12
### Prompt Short answer wanted: higher IC50, P or Q ? Could you answer with the label of the item you picked?
### Response P
(P: 79 nM, Q: 4.6 nM)

(a) O=C(O)c1ccc(S(=O)(=O)N(Cc2ccc(OC(F)(F)F)cc2)c2cc3ccccc3c(C3CC3)n2)cc1
(b) Cc1c(N(Cc2ccc(-c3ccccc3)cc2)S(=O)(=O)c2ccc(C(=O)O)cc2)ncc2ccccc12
### Prompt Short answer wanted: higher IC50, a or b ? Could you answer with the label of the item you picked?
### Response a
(a: 66 nM, b: 26 nM)

(a) Cc1c(N(Cc2ccc3c(c2)OC(C)(C)C3)S(=O)(=O)c2ccc(C(=O)O)cc2)ncc2ccccc12
(b) Cc1c(N(Cc2ccc3c(c2)c(Cl)cn3C)S(=O)(=O)c2ccc(C(=O)O)cc2)ncc2ccccc12
(c) Cc1cc2ccccc2nc1N(Cc1ccc(OC(F)(F)F)cc1)S(=O)(=O)c1ccc(C(=O)O)cc1
(d) COC(C)(c1ccc(CN(c2ncc3ccccc3c2C)S(=O)(=O)c2ccc(C(=O)O)cc2)cc1Cl)C(F)(F)F (centres unmarked)
(e) Cc1nc2ccc(CN(c3ncc4ccccc4c3C)S(=O)(=O)c3ccc(C(=O)O)cc3)cc2s1
### Prompt # sort list by recorded IC50, greatest to least Your answer should be the labels, listed in the requested order.
### Response e, a, b, c, d
(e: 148 nM, a: 58 nM, b: 12 nM, c: 5 nM, d: 1.6 nM)

(P) CC(=O)c1c(N(Cc2ccc(OC(F)(F)F)cc2)S(=O)(=O)c2ccc(C(=O)O)cc2)ncc2ccccc12
(Q) Cc1c(N(C2CCc3cc(OC(F)(F)F)ccc32)S(=O)(=O)c2ccc(C(=O)O)cc2)ncc2ccccc12 (centres unmarked)
(R) Cc1c(N(Cc2ccc(C(C)(O)C(F)(F)F)c(F)c2)S(=O)(=O)c2ccc(C(=O)O)cc2)ncc2ccccc12 (centres unmarked)
(S) Cc1c(N(Cc2cc3cc(F)cc(F)c3s2)S(=O)(=O)c2ccc(C(=O)O)cc2)ncc2ccccc12
(T) Cc1cc2cc(F)ccc2nc1N(Cc1ccc(OC(F)(F)F)cc1)S(=O)(=O)c1ccc(C(=O)O)cc1
### Prompt Provide the items ranked by increasing IC50. Your answer should be the labels, listed in the requested order.
### Response Q, S, P, R, T
(Q: 2.1 nM, S: 6 nM, P: 14 nM, R: 55 nM, T: 91 nM)

(P) Cc1cc2ccccc2nc1N(Cc1ccc(F)c(C(F)(F)F)c1)S(=O)(=O)c1ccc(C(=O)O)cc1
(Q) CCONC(=O)c1ccc(S(=O)(=O)N(Cc2ccc(OC(F)(F)F)cc2)c2ncc3ccccc3c2C)cc1
### Prompt Short answer wanted: higher IC50, P or Q ? Could you answer with the label of the item you picked?
### Response Q
(Q: 18 nM, P: 12 nM)

(P) CC(C)c1nc(N(Cc2ccc(OC(F)(F)F)cc2)S(=O)(=O)c2ccc(C(=O)O)cc2)c(C(C)C)c2ccccc12
(Q) Cc1cc2ccccc2nc1N(Cc1ccc(C(F)(F)C2CC2)cc1)S(=O)(=O)c1ccc(C(=O)O)cc1
(R) Cc1c(N(Cc2ccc(-c3ccccc3)nc2)S(=O)(=O)c2ccc(C(=O)O)cc2)ncc2ccccc12
### Prompt Provide the items ranked by increasing IC50. Your answer should be the labels, listed in the requested order.
### Response Q, P, R
